- target: NMDA receptor subunits 1A/2A (Rattus norvegicus, UniProt P35439+Q00959)
- Construct: clones from Dr. P. H. Seeburg)
- Sequence (Q00959 20-1464 limits assumed, other chains not shown): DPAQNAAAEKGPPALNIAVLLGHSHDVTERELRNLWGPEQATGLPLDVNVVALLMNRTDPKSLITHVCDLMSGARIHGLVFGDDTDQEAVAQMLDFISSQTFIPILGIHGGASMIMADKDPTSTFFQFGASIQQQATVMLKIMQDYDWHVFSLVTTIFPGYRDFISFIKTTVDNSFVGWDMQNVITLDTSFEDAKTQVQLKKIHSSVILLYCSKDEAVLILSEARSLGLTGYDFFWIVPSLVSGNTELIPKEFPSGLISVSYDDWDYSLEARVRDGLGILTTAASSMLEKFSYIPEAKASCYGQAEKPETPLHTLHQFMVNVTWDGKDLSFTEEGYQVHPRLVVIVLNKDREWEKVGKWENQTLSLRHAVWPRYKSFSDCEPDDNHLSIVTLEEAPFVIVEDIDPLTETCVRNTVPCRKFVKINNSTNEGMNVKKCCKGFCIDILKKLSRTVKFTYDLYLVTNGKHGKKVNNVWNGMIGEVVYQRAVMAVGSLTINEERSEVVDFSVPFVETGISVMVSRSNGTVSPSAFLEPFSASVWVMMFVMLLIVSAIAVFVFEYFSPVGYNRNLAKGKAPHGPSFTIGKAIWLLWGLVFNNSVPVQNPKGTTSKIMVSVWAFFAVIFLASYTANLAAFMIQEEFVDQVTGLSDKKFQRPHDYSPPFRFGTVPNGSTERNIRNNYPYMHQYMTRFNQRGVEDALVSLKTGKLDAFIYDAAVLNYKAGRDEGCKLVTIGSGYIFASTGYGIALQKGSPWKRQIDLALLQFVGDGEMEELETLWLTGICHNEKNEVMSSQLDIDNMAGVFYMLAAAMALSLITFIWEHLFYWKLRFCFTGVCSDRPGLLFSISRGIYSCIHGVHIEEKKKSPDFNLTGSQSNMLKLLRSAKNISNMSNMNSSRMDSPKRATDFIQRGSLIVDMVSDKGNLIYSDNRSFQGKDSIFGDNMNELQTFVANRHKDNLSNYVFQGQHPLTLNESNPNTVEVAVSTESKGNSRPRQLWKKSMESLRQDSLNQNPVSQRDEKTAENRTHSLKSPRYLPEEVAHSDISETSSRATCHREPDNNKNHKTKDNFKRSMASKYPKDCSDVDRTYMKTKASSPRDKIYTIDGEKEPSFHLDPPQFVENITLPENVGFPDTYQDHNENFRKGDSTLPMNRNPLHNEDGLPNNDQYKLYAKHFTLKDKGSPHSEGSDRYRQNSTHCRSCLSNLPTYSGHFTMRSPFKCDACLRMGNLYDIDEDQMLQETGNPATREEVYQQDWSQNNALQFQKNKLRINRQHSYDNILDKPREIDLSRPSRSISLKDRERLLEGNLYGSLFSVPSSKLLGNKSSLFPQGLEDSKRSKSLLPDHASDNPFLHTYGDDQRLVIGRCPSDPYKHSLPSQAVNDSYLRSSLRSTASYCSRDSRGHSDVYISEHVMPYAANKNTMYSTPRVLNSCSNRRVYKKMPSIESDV
- assay-comment: Electrophysiological assay at NMDA receptor subunits expressed in Xenopus oocytes, 1A/2A
- condition-info: glutamate 100 μm and glycine 1-100 μm
pIC50: −log10 of the molar value. Structures can show the parent of a compound that is named as a salt.
The label depends only on pIC50: Yes if it is at least 4, No if it is smaller.

Before answering, review these 2 worked examples.
>>> df
                                   compound  answer_label
0  Fc1cccc(OCCCN2CCC(Cc3ccc(Cl)cc3)CC2)c1 [Ex. 31, hydrobromide]           Yes
1  COc1ccc(C2CCN(CCCCc3ccccc3)CC2)cc1 [Ex. 166]            No

Asked: Can Br.Br.Nc1ccc(OCCN2CCC(Cc3ccc(Cl)cc3)CC2)cc1 [Ex. 28, dihydrobromide] be said to have pIC50 at or above 4?
Given back: Yes

Asked: Also Cc1ccc(CC2CCN(CCOc3ccc(O)c(F)c3)CC2)c(F)c1 [Ex. 149, hydrochloride] , if possible.
Given back: Yes

Asked: Also O=c1[nH]c2ccc(OCCN3CCC(Cc4ccccc4)CC3)cc2[nH]1 [Ex. 59] , if possible.
Given back: Yes

Asked: Also N=c1[nH]c2ccc(OCCN3CCC(Cc4ccccc4)CC3)cc2[nH]1 [Ex. 172] , if possible.
Given back: No

Asked: Also c1ccc(OCCCN2CCC(c3ccccc3)CC2)cc1 [Ex. 7, 1-(3-Phenoxypropyl)-4-phenylpiperidine] , if possible.
Given back: No

----------
- target: NMDA receptor subunits 1A/2A (Rattus norvegicus, UniProt P35439+Q00959)
- Construct: clones from Dr. P. H. Seeburg)
- assay-comment: Electrophysiological assay at NMDA receptor subunits expressed in Xenopus oocytes, 1A/2A
- condition-info: glutamate 100 μm and glycine 1-100 μm
Structures can show the parent of a compound that is named as a salt.
Exercise: for every item that follows, state its recorded pIC50.
Answers are plain numbers, as −log10 of the molar value.

>>> df
                                   compound                                    target  observation_type  measured_number
0  O=c1[nH]c2cc(OCCN3CCC(Cc4ccccc4)CC3)ccc2o1  NMDA receptor subunits 1A/2A (Rattus norvegicus, UniProt P35439+Q00959)             pIC50             3.96
1    c1ccc(CC2CCN(CCOc3cccc4cccnc34)CC2)cc1  NMDA receptor subunits 1A/2A (Rattus norvegicus, UniProt P35439+Q00959)             pIC50             4.10
2  CC(C)c1ccc(CC2CCN(CCOc3ccc(O)cc3)CC2)cc1 [Ex. 131, hydrochloride]  NMDA receptor subunits 1A/2A (Rattus norvegicus, UniProt P35439+Q00959)             pIC50             4.30

Turning now to a further compound:
Asked: What value of pIC50 has been reported for the following compound? Cc1ccc(CC2CCN(CCOc3ccc(O)cc3)CC2)cc1 [Ex. 115, hydrochloride]
Given back: 4.12

----------
- target: NMDA receptor subunits 1A/2B (Rattus norvegicus, UniProt P35439+Q00960)
- Construct: expressed in transfected cells; host or cells: Xenopus laevis oocytes (cRNA injection; clones from Dr. P. H. Seeburg)
- Sequence (Q00960 27-1482, other chains not shown): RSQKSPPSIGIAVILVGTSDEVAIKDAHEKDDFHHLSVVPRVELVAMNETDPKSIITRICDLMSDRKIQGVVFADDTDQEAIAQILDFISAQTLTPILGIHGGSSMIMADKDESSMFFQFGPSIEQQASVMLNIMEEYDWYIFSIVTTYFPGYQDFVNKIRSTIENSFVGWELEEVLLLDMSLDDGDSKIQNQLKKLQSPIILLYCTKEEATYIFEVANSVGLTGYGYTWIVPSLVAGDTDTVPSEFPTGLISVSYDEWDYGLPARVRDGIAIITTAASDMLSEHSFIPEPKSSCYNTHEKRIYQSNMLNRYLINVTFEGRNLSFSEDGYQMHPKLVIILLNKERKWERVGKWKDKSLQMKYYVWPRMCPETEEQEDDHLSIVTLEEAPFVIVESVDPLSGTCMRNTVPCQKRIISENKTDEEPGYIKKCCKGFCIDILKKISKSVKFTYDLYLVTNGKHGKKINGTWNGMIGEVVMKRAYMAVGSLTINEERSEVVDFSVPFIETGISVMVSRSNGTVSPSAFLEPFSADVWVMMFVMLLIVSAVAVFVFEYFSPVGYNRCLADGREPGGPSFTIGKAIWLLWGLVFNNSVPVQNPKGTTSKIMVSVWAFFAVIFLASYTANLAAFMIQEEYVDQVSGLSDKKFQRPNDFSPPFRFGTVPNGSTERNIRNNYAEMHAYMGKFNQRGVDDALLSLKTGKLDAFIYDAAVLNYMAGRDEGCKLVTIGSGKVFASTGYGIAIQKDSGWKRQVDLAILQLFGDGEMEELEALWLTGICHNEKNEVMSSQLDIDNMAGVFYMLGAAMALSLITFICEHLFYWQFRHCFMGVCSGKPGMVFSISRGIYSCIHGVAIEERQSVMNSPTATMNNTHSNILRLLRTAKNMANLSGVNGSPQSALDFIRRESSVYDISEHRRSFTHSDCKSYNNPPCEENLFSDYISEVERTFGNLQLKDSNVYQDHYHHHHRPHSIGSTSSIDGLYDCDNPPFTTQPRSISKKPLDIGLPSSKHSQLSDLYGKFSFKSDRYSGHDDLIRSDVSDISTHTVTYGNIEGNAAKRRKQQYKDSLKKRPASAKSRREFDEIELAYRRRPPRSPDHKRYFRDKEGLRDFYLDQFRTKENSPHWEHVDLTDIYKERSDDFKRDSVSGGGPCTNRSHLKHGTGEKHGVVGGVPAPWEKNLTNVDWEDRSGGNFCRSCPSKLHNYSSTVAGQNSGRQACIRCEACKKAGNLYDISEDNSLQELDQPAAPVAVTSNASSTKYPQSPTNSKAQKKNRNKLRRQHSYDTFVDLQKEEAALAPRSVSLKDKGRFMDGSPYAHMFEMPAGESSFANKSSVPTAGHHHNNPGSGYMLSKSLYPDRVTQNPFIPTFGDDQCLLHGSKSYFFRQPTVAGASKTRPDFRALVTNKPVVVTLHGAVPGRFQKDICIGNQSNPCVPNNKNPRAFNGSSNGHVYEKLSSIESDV
- assay-comment: Electrophysiological assay at NMDA receptor subunits expressed in Xenopus oocytes, 1A/2B
- Type: cell-based
- condition-info: Xenopus oocytes; glutamate 100 μm and glycine 1-100 μm; read-out: Subunits IC50, 1A/2B
pIC50: −log10 of the molar value. Where a name gives a salt, the structure may show the parent alone.
Output schema: class label derived from pIC50. Mapping: one (below 6), two (6 to below 7), three (7 or more)

Before answering, review these 5 worked examples.
                                   molecule                                    target  answer_label
0  COc1ccc(CC2CCN(CCOc3ccc(F)cc3)CC2)cc1 [Ex. 35, hydrochloride]  NMDA receptor subunits 1A/2B (Rattus norvegicus, UniProt P35439+Q00960)           one
1  Br.Br.Nc1ccc(OCCN2CCC(Cc3ccc(Cl)cc3)CC2)cc1 [Ex. 28, dihydrobromide]  NMDA receptor subunits 1A/2B (Rattus norvegicus, UniProt P35439+Q00960)           two
2  OC1(Cc2ccccc2)CCN(CCCc2ccccc2)CC1 [Ex. 91, hydrochloride]  NMDA receptor subunits 1A/2B (Rattus norvegicus, UniProt P35439+Q00960)           one
3  Cc1ccc(CC2(O)CCN(CCOc3ccc(O)c(C)c3)CC2)cc1 [Ex. 155, hydrochloride]  NMDA receptor subunits 1A/2B (Rattus norvegicus, UniProt P35439+Q00960)         three
4        Nc1ccc(OCCN2CCC(Cc3ccccc3)CC2)cc1N  NMDA receptor subunits 1A/2B (Rattus norvegicus, UniProt P35439+Q00960)           two

Asked: Bin? Oc1ccc(OCCN2CCC(Cc3ccccc3F)CC2)cc1 [Ex. 128, hydrochloride]
Given back: three

----------
- target: NMDA receptor subunits 1A/2A (Rattus norvegicus, UniProt P35439+Q00959)
- Construct: clones from Dr. P. H. Seeburg)
- assay-comment: Electrophysiological assay at NMDA receptor subunits expressed in Xenopus oocytes, 1A/2A
- condition-info: glutamate 100 μm and glycine 1-100 μm
pIC50: −log10 of the molar value. Where a name gives a salt, the structure may show the parent alone.
The label depends only on pIC50: y if it is at least 4, n if it is smaller.

Before answering, review these 4 worked examples.
>>> df
                                   molecule  answer_label
0  Cl.Oc1ccc(OCCN2CCC(Cc3c(F)cccc3F)CC2)cc1 [Ex. 146, hydrochloride]             y
1  O=c1[nH]c2cccc(OCCN3CCC(Cc4ccccc4)CC3)c2[nH]1             y
2       OCCc1cccc(OCCN2CCC(Cc3ccccc3)CC2)c1             y
3  Cc1ccc(CC2(O)CCN(CCOc3ccc(O)c(C)c3)CC2)cc1 [Ex. 155, hydrochloride]             n

Okay, now this molecule:
Asked: Can OC(COc1cccc2ccccc12)CN1CCC(Cc2ccccc2)CC1 (centres unmarked) be said to have pIC50 at or above 4?
Given back: y

----------
- target: NMDA receptor subunits 1A/2B (Rattus norvegicus, UniProt P35439+Q00960)
- Construct: expressed in transfected cells; host or cells: Xenopus laevis oocytes (cRNA injection; clones from Dr. P. H. Seeburg)
- assay-comment: Electrophysiological assay at NMDA receptor subunits expressed in Xenopus oocytes, 1A/2B
- Format: cell-based
- condition-info: Xenopus oocytes; glutamate 100 μm and glycine 1-100 μm; read-out: Subunits IC50, 1A/2B
Counter-ions that a name gives are not always drawn.
Exercise: for every item that follows, state its recorded log10(IC50).
Recorded IC50 (log10, nM)

>>> df
                                   compound  observation_type  measured_number
0  Cc1ccc(CC2(O)CCN(CCOc3ccc(O)cc3)CC2)cc1.Cl [Ex. 154, hydrochloride]       log10(IC50)             1.30
1  Oc1ccc(OCCN2CCC(Cc3ccc(C(F)(F)F)cc3)CC2)cc1 [Ex. 129, hydrochloride]       log10(IC50)             1.70
2  CC(C)(C)c1ccc(CC2CCN(CCOc3ccc(O)cc3)CC2)cc1 [Ex. 132, hydrochloride]       log10(IC50)             2.20
3  O=[N+]([O-])c1ccc(OCCN2CCC(Cc3ccc(Cl)cc3)CC2)cc1 [Ex. 27, hydrobromide]       log10(IC50)             3.70
4  O=c1[nH]c2ccc(OCCCN3CCC(Cc4ccccc4)CC3)cc2[nH]1 [Ex. 170]       log10(IC50)             1.60
5  Cc1ccc(CC2CCN(CCOc3ccc(F)cc3)CC2)c(F)c1 [Ex. 133, hydrochloride]       log10(IC50)             2.32
6  c1ccc(CC2CCN(CCOc3ccc4c(c3)OCO4)CC2)cc1 [Ex. 148, hydrochloride]       log10(IC50)             3.58

Turning now to a further compound:
Asked: What value of log10(IC50) has been reported for the following compound? c1ccc(CC2CCN(CCSc3ccccc3)CC2)cc1 [Ex. 144, hydrochloride]
Given back: 3.20

----------
- target: NMDA receptor subunits 1A/2B (Rattus norvegicus, UniProt P35439+Q00960)
- Construct: expressed in transfected cells; host or cells: Xenopus laevis oocytes (cRNA injection; clones from Dr. P. H. Seeburg)
- assay-comment: Electrophysiological assay at NMDA receptor subunits expressed in Xenopus oocytes, 1A/2B
- Type: cell-based
- condition-info: Xenopus oocytes; glutamate 100 μm and glycine 1-100 μm; read-out: Subunits IC50, 1A/2B
pIC50: −log10 of the molar value. Structures can show the parent of a compound that is named as a salt.
The label depends only on pIC50: Criterion met if it is at least 6, Criterion not met if it is smaller.

Before answering, review these 5 worked examples.
In [3]: df
Out[3]:
                                   compound       answer_label
0  Nc1c(OCCN2CCC(Cc3ccccc3)CC2)cccc1[N+](=O)[O-]  Criterion not met
1  Cl.Oc1ccc(SCCN2CCC(Cc3ccc(F)cc3)CC2)cc1 [Ex. 165, hydrochloride]      Criterion met
2  Oc1ccc(OCCN2CCC(Cc3ccc4ccccc4c3)CC2)cc1 [Ex. 141, hydrochloride]      Criterion met
3       N#Cc1ccc(OCCN2CCC(Cc3ccccc3)CC2)cc1  Criterion not met
4         Oc1ccc(C2CCN(CCCCc3ccccc3)CC2)cc1      Criterion met

Okay, now this compound:
Asked: Can "CCOC(=O)Cc1cccc(OCCN2CCC(Cc3ccccc3)CC2)c1" be said to have pIC50 at or above 6?
Given back: Criterion not met

Source of measurements: patent US6124323A
